molecular target: UniProt:P31422; test: Negative allosteric modulation of rat mGlu3 receptor assessed as amplitude response at 30 uM relative to glutamate
Sequence (P31422 23-879 limits assumed): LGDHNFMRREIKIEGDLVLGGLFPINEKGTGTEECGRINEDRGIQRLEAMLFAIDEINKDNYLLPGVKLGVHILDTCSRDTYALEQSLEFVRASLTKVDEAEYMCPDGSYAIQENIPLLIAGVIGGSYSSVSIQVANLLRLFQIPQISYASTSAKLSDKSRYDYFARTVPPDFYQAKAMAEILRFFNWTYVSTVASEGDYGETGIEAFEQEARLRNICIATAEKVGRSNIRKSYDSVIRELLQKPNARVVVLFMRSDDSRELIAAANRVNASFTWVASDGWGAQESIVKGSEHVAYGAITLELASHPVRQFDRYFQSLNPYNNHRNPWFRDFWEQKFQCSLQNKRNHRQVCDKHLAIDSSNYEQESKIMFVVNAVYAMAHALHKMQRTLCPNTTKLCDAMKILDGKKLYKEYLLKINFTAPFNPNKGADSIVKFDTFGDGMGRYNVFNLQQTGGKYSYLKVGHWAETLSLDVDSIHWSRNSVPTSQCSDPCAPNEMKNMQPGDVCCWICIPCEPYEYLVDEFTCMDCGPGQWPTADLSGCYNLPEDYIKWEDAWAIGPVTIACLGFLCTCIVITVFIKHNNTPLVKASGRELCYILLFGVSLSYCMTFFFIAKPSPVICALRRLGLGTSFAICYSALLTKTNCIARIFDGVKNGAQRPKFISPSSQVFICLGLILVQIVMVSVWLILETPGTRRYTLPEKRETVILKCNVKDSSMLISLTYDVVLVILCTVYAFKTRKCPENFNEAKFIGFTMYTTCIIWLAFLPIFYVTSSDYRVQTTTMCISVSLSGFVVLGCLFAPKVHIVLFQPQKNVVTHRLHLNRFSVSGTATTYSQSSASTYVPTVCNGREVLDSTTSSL
RESULT TYPE: Activity (%)
Give the value, in units of %, as a plain number.

Some solved cases for reference:
COc1ccccc1N1C[C@@H](C)n2nc(COc3ccc(F)cn3)cc2C1=O ... 1.49
COc1ccnc(OCc2cc3n(n2)[C@H](C)CN(c2ccc(F)cc2)C3=O)c1 ... -0.18

Turning to the following compound.
Ask | // fetch UniProt:P31422 Activity for "Cc1ccc(N2C[C@@H](C)n3nc(COc4ccc(Cl)cn4)cc3C2=O)cc1"
Reply | 1.39

* * *

target: Metabotropic glutamate receptor 5 (Rattus norvegicus, UniProt P31424); assay: Modulation of rat mGlu5 receptor assessed as calcium mobilization by cell based fluorescence assay
Sequence (P31424 whole entry): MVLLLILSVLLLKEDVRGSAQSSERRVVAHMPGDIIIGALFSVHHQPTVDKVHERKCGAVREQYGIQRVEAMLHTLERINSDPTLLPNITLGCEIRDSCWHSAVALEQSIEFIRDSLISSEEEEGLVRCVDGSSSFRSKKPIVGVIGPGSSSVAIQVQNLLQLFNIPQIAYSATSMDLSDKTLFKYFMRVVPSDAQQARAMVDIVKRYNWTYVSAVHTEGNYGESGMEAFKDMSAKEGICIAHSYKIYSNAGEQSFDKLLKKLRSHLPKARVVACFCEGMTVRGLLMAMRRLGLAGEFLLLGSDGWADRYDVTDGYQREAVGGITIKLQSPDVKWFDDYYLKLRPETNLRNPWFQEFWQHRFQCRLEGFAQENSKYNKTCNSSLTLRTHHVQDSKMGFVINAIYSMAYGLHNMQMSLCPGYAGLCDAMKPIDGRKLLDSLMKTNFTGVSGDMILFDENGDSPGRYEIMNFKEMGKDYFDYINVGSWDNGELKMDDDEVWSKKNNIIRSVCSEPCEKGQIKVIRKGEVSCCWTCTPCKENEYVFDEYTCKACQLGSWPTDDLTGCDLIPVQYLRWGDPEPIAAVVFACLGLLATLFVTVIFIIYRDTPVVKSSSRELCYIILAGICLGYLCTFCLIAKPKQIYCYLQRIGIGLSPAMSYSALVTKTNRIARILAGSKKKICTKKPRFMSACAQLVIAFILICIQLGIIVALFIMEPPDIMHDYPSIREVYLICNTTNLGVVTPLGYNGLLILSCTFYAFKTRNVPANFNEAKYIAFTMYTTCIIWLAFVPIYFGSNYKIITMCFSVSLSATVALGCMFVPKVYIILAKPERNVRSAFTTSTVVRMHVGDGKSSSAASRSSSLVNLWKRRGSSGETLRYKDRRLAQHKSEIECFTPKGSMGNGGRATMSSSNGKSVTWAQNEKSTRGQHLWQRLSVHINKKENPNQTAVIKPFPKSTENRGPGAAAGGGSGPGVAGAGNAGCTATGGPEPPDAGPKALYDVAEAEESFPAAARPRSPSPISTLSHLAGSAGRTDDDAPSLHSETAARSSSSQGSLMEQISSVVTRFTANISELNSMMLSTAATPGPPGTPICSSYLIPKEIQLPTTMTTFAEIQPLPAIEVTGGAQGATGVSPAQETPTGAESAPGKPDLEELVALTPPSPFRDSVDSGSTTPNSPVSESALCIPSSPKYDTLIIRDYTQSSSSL
RESULT TYPE: EC50 (µM)
Give the value, in units of µM, as a plain number.

Some solved cases for reference:
C[C@@H]1CN(c2cccc(Cl)c2)C(=O)c2cc(COc3ccc(F)cn3)nn21 ... 1.85
Cc1ccc(OCc2cc3n(n2)[C@H](C)CN(c2ccc(F)cc2)C3=O)cc1 ... 1.08
C[C@@H]1CN(c2cccc(F)c2F)C(=O)c2cc(COc3ccc(Cl)cn3)nn21 ... 6.68
C[C@@H]1CN(c2ccccn2)C(=O)c2cc(COc3ccc(F)cn3)nn21 ... 3.52

Ask | EC50 lookup needed for "C[C@@H]1CN(c2cccc(F)c2)C(=O)c2cc(COc3ccc(F)cn3)nn21" , thanks.
Reply | 2.72

Ask | One more molecule: "C[C@@H]1CN(c2ccccc2C#N)C(=O)c2cc(COc3ccc(Cl)cn3)nn21"
Reply | 4.97

Ask | One more molecule: "C[C@@H]1CN(c2ccc(F)cc2)C(=O)c2cc(COc3cccc(F)c3)nn21"
Reply | 0.073

Ask | One more molecule: "C[C@@H]1CN(c2ccc(F)cc2)C(=O)c2cc(COc3ccccc3F)nn21"
Reply | 0.195

* * *

biological target: Metabotropic glutamate receptor 5 (Rattus norvegicus, UniProt P31424); assay: Modulation of rat mGlu5 receptor assessed as calcium mobilization by cell based fluorescence assay
RESULT TYPE: EC50 (µM)
Give the value, in units of µM, as a plain number.

Some solved cases for reference:
C[C@@H]1CN(c2c(F)cccc2F)C(=O)c2cc(COc3ccc(Cl)cn3)nn21 ... 1.42
COc1cccc(N2C[C@@H](C)n3nc(COc4ccc(Cl)cn4)cc3C2=O)c1 ... 5.07
C[C@@H]1CN(c2ccc(F)cc2)C(=O)c2cc(COc3ccc(Cl)cn3)nn21 ... 2.92

Ask | EC50 lookup needed for "CCc1ccc(OCc2cc3n(n2)[C@H](C)CN(c2ccc(F)cc2)C3=O)cc1" , thanks.
Reply | 3.21

Ask | One more molecule: "C[C@@H]1CN(c2cc(F)cc(C#N)c2)C(=O)c2cc(COc3ccc(Cl)cn3)nn21"
Reply | 1.04

Ask | One more molecule: "C[C@@H]1CN(c2ccc(F)cn2)C(=O)c2cc(COc3ccc(F)cn3)nn21"
Reply | 9.74

Ask | One more molecule: "C[C@@H]1CN(c2ccc(F)cc2)C(=O)c2cc(COc3ccc(F)cc3)nn21"
Reply | 0.092

Ask | One more molecule: "C[C@@H]1CN(c2ccc(F)cc2)C(=O)c2cc(COc3ncccc3F)nn21"
Reply | 4.3

Ask | One more molecule: "C[C@@H]1CN(c2ccc(C#N)cc2)C(=O)c2cc(COc3ccc(Cl)cn3)nn21"
Reply | 3.32

Ask | One more molecule: "C[C@@H]1CN(c2ccc(F)cc2)C(=O)c2cc(COc3ccccc3Cl)nn21"
Reply | 0.419
